Consider the following compounds; for each one, report its selectivity ratio.
test: Selectivity index, ratio of CC50 for Influenza A virus (A/Brisbane/10/2007(H3N2)) infected MDCK cells to EC50 for antiviral activity against Influenza A virus (A/Brisbane/10/2007(H3N2)); format: toxicity, cell-based; details: dog; read-out: Ratio CC50/EC50
Output spec: single numeric token, no unit.

Item: COC(=O)[C@]1(C)CCC[C@]2(C)[C@H]3C[C@H]4C(C(C)C)=C[C@]3(CC[C@H]21)[C@@H]1/C(=N/O)CCC2(OCCO2)[C@@H]14 | selectivity ratio: 1

Item: COC(=O)[C@]12C=CC(=O)[C@H]1[C@@]13C=C(C(C)C)[C@@H]2C[C@@H]1[C@@]1(C)CCC[C@@](C)(C(=O)OC)[C@@H]1CC3 | selectivity ratio: 1.2

Item: COC(=O)[C@]1(C)CCC[C@]2(C)[C@H]3C[C@H]4C(C(C)C)=C[C@]3(CC[C@H]21)[C@@H]1/C(=N/OC(C)=O)CC[C@H](OC(C)=O)[C@@H]14 | selectivity ratio: 1.1

Item: COC(=O)[C@H](C)NC(=O)[C@]1(C)CCC[C@]2(C)[C@H]3C[C@H]4C(C(C)C)=C[C@]3(CC[C@H]21)[C@@H]1C(=O)OC(=O)[C@@H]14 | selectivity ratio: 1

Item: CC(C)C1=C[C@]23CC[C@@H]4[C@](C)(CCC[C@@]4(C)C(=O)O)[C@H]2C[C@H]1[C@H]1C(=O)OC(=O)[C@H]13 | selectivity ratio: 1.2

Origin of measurements: ChEMBL document CHEMBL3616462
